Experiment: Metabolic stability in human liver microsomes assessed as half life at 10 uM incubated up to 60 mins by HPLC-MS analysis
Assay type: ADME, Microsome

[
  {
    "entry smiles": "CC(C)c1ccc(-c2c3cn[nH]c3nc3c2oc2cc(O)ccc23)cc1",
    "half-life at 10 µM": "1.68 h"
  }
]

====

Test system: U-87 MG
Experiment: Antiproliferative activity against human U-87 MG cells assessed as reduction in cell viability incubated for 72 hrs by PrestoBlue cell viability assay
pIC50: −log10 of the molar value.
Measured pIC50 of individual entries

[
  {
    "entry smiles": "CC(C)c1ccc(-c2c3cn[nH]c3nc3c2oc2cc(O)ccc23)cc1",
    "assay system": "U-87 MG",
    "pIC50": 5.48
  },
  {
    "entry smiles": "Cn1sc(=O)n(Cc2ccccc2)c1=O",
    "assay system": "U-87 MG",
    "pIC50": 4.63
  }
]
